Tested on: TYKNU
Protocol description: fractional viability relative to vehicle; higher = less growth inhibition
Conditions used: 2uM; 72 h; genotype: sgCTRLA1 (non-targeting control)
The full ranking holds about 2,000 compounds; the median of “fractional viability relative to vehicle” is about 0.91, and the lowest 2% start at about 0.045. The sample as a whole holds a higher share of the lowest values than the screen did.
fractional viability values, listed per item
Quantity: fractional viability

In [3]: df
Out[3]:
                                 smiles_str  readout_value
0  C=CC(=O)Nc1ccc2ncnc(Nc3ccc(OCc4cccc(F)c4)c(Cl)c3)c2c1          0.853
1  O=C(c1ccccc1)c1ccc2nc(NC(=O)c3csc(C4CCN(c5ncnc6ccsc56)CC4)n3)[nH]c2c1           1.15
2  CN(C)CCNC(=O)c1cccn2c(=O)c3cc4ccccc4cc3nc12          0.417
3  COC(=O)C[C@H](NC(=O)[C@H](C)NC(=O)[C@@H](NC(=O)OCc1ccccc1)C(C)C)C(=O)CF           1.14
4  Cc1cc(OCc2nnc(SC3CCCC3)n2-c2cccnc2)ccc1-c1ccc(S(C)(=O)=O)cc1           0.46

---

System: TYKNU
Protocol description: fractional viability relative to vehicle; TYKNU is a high-grade serous ovarian cancer line; higher = less growth inhibition
Conditions used: 10uM; 72 h; genotype: DNM1L knockout (sgDNM1L #1)
Structures can show the parent of a compound that is named as a salt. In all, about 2,000 compounds were measured (“fractional viability relative to vehicle”: median about 0.91, lowest 2% from about 0.045 on). For the sample, the lowest values were picked, then their nearest neighbours and some compounds at random.
I'd appreciate it if you marked entries yes when fractional viability is lower than 0.7 and no when it is not.

Compound	Class name
CNC(=O)c1ccccc1Oc1nc(Nc2cc(OC)c(OC)c(OC)c2)ncc1Br	yes
C[C@H](NC(=O)/C(C#N)=C/c1cccc(Br)n1)c1ccccc1	yes
C=CC(=O)Nc1cccc(Nc2nc(Nc3ccc(N4CCN(C(C)=O)CC4)cc3OC)ncc2C(F)(F)F)c1	yes
C=CC(=O)Nc1cccc(Oc2nc(Nc3ccc(N4CCN(C)CC4)cc3)ncc2Cl)c1	yes
C=C[C@@]1(C)CC(=O)[C@]2(O)[C@@]3(C)[C@@H](O)CCC(C)(C)[C@@H]3[C@H](O)[C@H](OC(C)=O)[C@@]2(C)O1	no
CC[C@H](C)C[C@H](C)CCCCCCCCC(=O)N[C@H]1C[C@@H](O)[C@@H](NCCN)NC(=O)[C@@H]2[C@@H](O)CCN2C(=O)[C@H]([C@H](O)CCN)NC(=O)[C@H]([C@H](O)[C@@H](O)c2ccc(O)cc2)NC(=O)[C@@H]2C[C@@H](O)CN2C(=O)[C@H]([C@@H](C)O)NC1=O [Caspofungin Acetate]	yes
CC(C)NCC(O)COc1cccc2ccccc12 (stereo unspecified) [Propranolol HCl]	no
C=CC(=O)Nc1cccc(Sc2nc(Nc3ccc(N4CCN(C)CC4)cc3)ncc2Cl)c1	yes
CCC[C@H](NC(=O)/C(C#N)=C/c1cccc(Br)n1)c1ccccc1 [Degrasyn (WP1130)]	yes
C=CC(=O)Nc1cccc(Nc2nc(Nc3ccc(OCCOC)cc3)ncc2F)c1	yes
CNC[C@@H](O)c1ccc(O)c(O)c1	no
Cc1cnc(Nc2ccc(OCCN3CCCC3)cc2)nc1Nc1cccc(S(=O)(=O)NC(C)(C)C)c1	yes
O=c1ncccn1[C@@H]1O[C@H](CO)[C@@H](O)[C@H]1O	yes
N#C/C(=C\c1ccc(O)c(O)c1)C(=O)NCc1ccccc1	no
